For each record, write down the corresponding EC50.
target: GPR35a (Homo sapiens, UniProt Q9HC97, S294R); assay: β-arrestin2-GFP redistribution/aggregation in UGPR35β cells; format: cell-based; parameters: expressed in transfected cells; conditions: mean (95% confidence interval in brackets in the text), read-out: EC50 for β-arrestin2 aggregation
Sequence (Q9HC97 whole entry S294R): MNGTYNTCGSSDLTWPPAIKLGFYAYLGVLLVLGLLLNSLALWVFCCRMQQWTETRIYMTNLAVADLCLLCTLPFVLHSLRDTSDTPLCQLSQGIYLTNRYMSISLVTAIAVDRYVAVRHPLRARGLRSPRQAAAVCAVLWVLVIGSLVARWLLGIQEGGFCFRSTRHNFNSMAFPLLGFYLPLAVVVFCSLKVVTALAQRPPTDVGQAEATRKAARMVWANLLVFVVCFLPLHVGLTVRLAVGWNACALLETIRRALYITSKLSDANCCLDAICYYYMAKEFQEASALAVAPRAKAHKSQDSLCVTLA
Answers are plain numbers, in µM.

Compound	EC50 / µM
O=C(O)c1cc(=O)c2ccccc2[nH]1 [kynurenic acid, 2-carboxy-4-hydroxy-quinoline]	217

# evaluate next
Request: What does the record list as EC50 for `O=C(O)c1cc([N+](=O)[O-])ccc1NCCCc1ccccc1` ?
Response: 4.3

---

target: GPR35a (Homo sapiens, UniProt Q9HC97, S294R); assay: β-arrestin2-GFP redistribution/aggregation in UGPR35β cells; type: cell-based; parameters: expressed in transfected cells; settings: concentration response analysis, read-out: β-arrestin response (EC50)
Parameter Measured: pEC50
Answers are plain numbers, as −log10 of the molar value.

// known answers, use as guide
Molecule	pEC50
O=C(O)c1cc2cc(Br)ccc2c(Cc2c(O)c(C(=O)O)cc3cc(Br)ccc23)c1O [Compound 3, 7,7′-dibromo-pamoic acid]	6.77
O=C(O)c1cc2ccccc2c(-c2c(O)c(C(=O)O)cc3ccccc23)c1O [Compound 4]	6.54
O=C(O)c1cc2ccccc2cc1O [Compound 8, 3-hydroxy-2-naphthoic acid]	4.07

Consider now this further molecule.
Request: What value of measured pEC50 is listed for O=C(O)c1cc2cc(Br)ccc2cc1O [Compound 7, 7-bromo-3-hydroxy-2-naphthoic acid] ?
Response: 5.16
